Value source: patent US20090221680

Each entry below carries its recorded activity.
system.under.test: thrombin (endogenous, clotting assay in plasma or whole blood) (Homo sapiens, UniProt P00734;P00734 P00734:328-363,P00734:364-622)
assay.remarks: inhibition; PT at 10 uM
Value expressed in s; do not type the unit.

{"binder": "TCCCATGATCGTTAGATTCAGGGATGGTGTGGGTGGCTGAGGATCGATC (ssDNA) [AMX(453)_G5]", "activity (s)": 29.3}
{"binder": "TCCCATCGATCTGGGGTAGTTTTATTGGGTCGGGTGGCTGAGGATCGATC (ssDNA) [AMX(453)_B10]", "activity (s)": 24.8}
{"binder": "TCCCGAGCGATATTGTCTAGGTTGGGTAGGGTGGTGGCTGAGGATCGATC (ssDNA) [AMX(453)_F11]", "activity (s)": 65.8}

What measured activity goes with TCCCTGCTTGTCGATATTTTAGGGTTGGTGTGGGTGGCTGAGGATCGATC (ssDNA) [AMX(454)_D11] ?
43.4

Requested read-out: activity. Entry: ATCCCAATGTTGAGACGAGTAGGTGTGGGTAGGGTGGCTGAGGATCGATC (ssDNA) [AMX(453)_A9]
29.3

Quick one: activity for CCCGACTGATTCTTACCTTAGGGATGGTGTGGGTGGCTGAGGATCGATC (ssDNA) [AMX(454)_B9] ?
32

What activity value was documented for this binder, TCCCTGCATCGAGCCTCTATGGGATGGTTTGGGTGGCTGAGGATCGATC (ssDNA) [AMX(454)_F9] ?
25

Consider the binder TCCCATCGATCTGGGGTAGTTTTATTGGGTTGGGTGGCTGAGGATCGATC (ssDNA) [AMX(454)_H3] and give its measured activity.
35.4
